- assayProtocol: ATG_GRE_CIS: Attagene CIS-FACTORIAL HepG2 Assay for human Glucocorticoid Response Elements (GRE) (AID 2282947)
- assaySetup: HepG2 GRE cis-reporter, Attagene multiplex mRNA; actives raise or lower the signal
- Experimental: ATG_CIS is a cell-based, multiplexed-readout assay that uses HepG2, a human liver cell line, with measurements taken at 24 hours after chemical dosing in a 24-well plate.ATG_GRE_CIS is one of 52 assay component(s) measured or calculated from the ATG_CIS assay. […] This assay endpoint, ATG_GRE_CIS, was analyzed with bidirectional fitting relative to DMSO as the negative control and baseline of activity. […]
Activity calls are given as the source filed them. How the source made its calls: active means hit-call score of the fitted dose curve at least 0.9, where 1 is the maximum; inactive means score below 0.9.
Please state which outcome applies, choosing from 1 (yes) = active, 0 (no) = inactive

Solved cases below.
[
  {
    "compound": "O=C1CCCN1C1CCCCC1",
    "labelClass": "0 (no)"
  },
  {
    "compound": "CCCCCCCCCC[N+](C)(CCCCCCCCCC)CCC[Si](OC)(OC)OC",
    "labelClass": "1 (yes)"
  },
  {
    "compound": "[Cl][Sc]([Cl])[Cl]",
    "labelClass": "0 (no)"
  },
  {
    "compound": "CC(C)OC(=O)c1ccccc1",
    "labelClass": "0 (no)"
  },
  {
    "compound": "C1CNCCN1",
    "labelClass": "0 (no)"
  },
  {
    "compound": "O=C1CCCCCCCCCCC1",
    "labelClass": "0 (no)"
  },
  {
    "compound": "CCC(C)C(=O)OCCc1ccccc1 (centres undefined)",
    "labelClass": "0 (no)"
  },
  {
    "compound": "CC/C=C\\CCOC(=O)c1ccccc1O",
    "labelClass": "0 (no)"
  }
]

What was the test verdict on `CCOC(=O)C1=NOC(c2ccccc2)(c2ccccc2)C1` ?
0 (no)

What was the test verdict on O=C(O)C1CCC(C(=O)O)CC1 (centres undefined) ?
0 (no)

What was the test verdict on `C=CCCCCCCCCC=O` ?
0 (no)

What was the test verdict on `CCCCCCOc1ccc(N)cc1` ?
0 (no)

What was the test verdict on CCCCCCCCC(CO)CCCCCC (centres undefined) ?
1 (yes)

What was the test verdict on `CN1CCN(C)CC1` ?
0 (no)

What was the test verdict on `CCCCCCCO` ?
0 (no)

What was the test verdict on `CCc1cccc(C)c1N` ?
0 (no)

What was the test verdict on `COC(=O)c1ccccc1C` ?
0 (no)

What was the test verdict on `O=C(O)/C=C/c1ccccc1` ?
0 (no)

What was the test verdict on `CCCCOCCOCCOC(C)=O` ?
0 (no)

What was the test verdict on `CC(C)(C)N` ?
0 (no)

What was the test verdict on `C=CCCCCCCCCO` ?
0 (no)

What was the test verdict on `CCCCCC1=CCCC1=O` ?
0 (no)

What was the test verdict on `CCOC(=O)c1ccc(C)cc1` ?
0 (no)

What was the test verdict on `CC(=O)C(C)C` ?
0 (no)

---

- assayProtocol: TOX21_p53_BLA_p4_viability: Viability Assessment in the Tox21 HCT-116 p53 Agonism Beta-lactamase Assay, Phase 4 (AID 2283597);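 further: hits lower the luminescence signal meaning cytotoxicity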
Inconclusive results are not listed. Active and inactive are the calls of the source. How the source made its calls: active means hit-call score of the fitted dose curve at least 0.9, where 1 is the maximum; inconclusive means response in the unintended direction; inactive means score below 0.9.
measurementKind: AC50

# count of solved cases: 8
[
  {
    "compound": "O=C(Cl)c1ccc(C(=O)Cl)cc1",
    "observedResult": "inactive"
  },
  {
    "compound": "C=C1C[C@H]2[C@@H]3C=C(C)C4=CC(=O)CC[C@]4(C)[C@H]3CC[C@]2(C)[C@@]1(OC(C)=O)C(C)=O",
    "observedResult": "inactive"
  },
  {
    "compound": "C=C(C)C(=O)OCC(O)COc1ccc(C(C)(C)c2ccc(OCC(O)COC(=O)C(=C)C)cc2)cc1 (stereo not given)",
    "observedResult": "46.1 µM (active)"
  },
  {
    "compound": "CC(C)c1ccc(O)c(C(C)C)c1",
    "observedResult": "44.7 µM (active)"
  },
  {
    "compound": "CC(C)=CCl",
    "observedResult": "inactive"
  },
  {
    "compound": "COc1ccc(-c2coc3cc(O)cc(O)c3c2=O)cc1",
    "observedResult": "inactive"
  },
  {
    "compound": "C=CC(C)(O)CC/C=C(\\C)CC (stereo not given)",
    "observedResult": "inactive"
  },
  {
    "compound": "O=C(Nc1ccccc1)c1cc(Cl)ccc1O",
    "observedResult": "12.6 µM (active)"
  }
]

Which AC50 is listed for `O=C(O)c1ccc2c(c1)C(=O)OC2=O` ?
inactive

Which AC50 is listed for `CC(=O)c1ccc(S(=O)(=O)NC(=O)NC2CCCCC2)cc1` ?
inactive
